B1: KRT18 (parent)
chain: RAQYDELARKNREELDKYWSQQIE

# Variants of: B1
# Assay Method Text: protein stability index of a GFP-peptide fusion (GPS, HEK-293T) (PSI 1-6); higher = more stable;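 note: lentivirally expressed fusions sorted by FACS into six bins by GFP to DsRed ratio, PSI derived from sequencing read proportions per bin multiplied by bin number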
# Particulars: c terminus: a fixed tail appended
Measured Property: protein stability index

> print(dat)
   mutant.label  observed
1           D5I      2.98
2          Q21A      3.05
3          E13L      3.07
4          K10A      2.97
